This listing pairs compounds with measured pIC50.
- target.or.system: Human immunodeficiency virus type 1 integrase (Human immunodeficiency virus 1, UniProt Q7ZJM1)
- Sequence (Q7ZJM1 whole entry): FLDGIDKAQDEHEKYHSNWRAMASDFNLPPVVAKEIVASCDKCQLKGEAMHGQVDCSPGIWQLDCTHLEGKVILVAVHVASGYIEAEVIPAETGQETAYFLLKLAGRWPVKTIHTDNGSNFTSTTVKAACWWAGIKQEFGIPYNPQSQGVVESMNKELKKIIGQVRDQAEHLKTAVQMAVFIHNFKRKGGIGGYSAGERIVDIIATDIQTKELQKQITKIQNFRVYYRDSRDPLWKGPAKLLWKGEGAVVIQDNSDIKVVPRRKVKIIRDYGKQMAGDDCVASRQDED
- experiment.summary: Inhibition of HIV-1 integrase
pIC50: −log10 of the molar value.
metric: pIC50

1) CC(C)Oc1ccc(Cc2ccccc2)cc1C(=O)CC(=O)C(=O)O :: 7.00
2) Cn1c(=O)c(C(=O)O)c(O)c2cc(-c3ccc(F)cc3)ccc21 :: 6.05
3) CCCCCn1c(=O)c(C(=O)Nc2cccc([N+](=O)[O-])c2O)c(O)c2ccccc21 :: 5.05
4) CC1COC2(C1)[C@H](C)n1cc(C(=O)NCc3ccc(F)cc3F)c(=O)c(O)c1C(=O)C2(C)C (stereo not given in full) :: 6.85
5) O=C(NCc1ccc(O)c(O)c1)c1ccc2ccc(C(=O)O)c(O)c2n1 :: 6.00
6) O=c1cc(-c2ccc(O)c(O)c2)oc2cc(O[C@@H]3O[C@H](CO)[C@@H](O)[C@H](O)[C@H]3OS(=O)(=O)O)cc(O)c12 :: 6.40
7) CC1COC2(C1)Cn1cc(C(=O)NCc3cccc(Cl)c3F)c(=O)c(O)c1C(=O)C2(C)C (stereo not given) :: 5.91
8) CC1COC2(C1)Cn1cc(C(=O)NCc3ccc(F)cc3F)c(=O)c(O)c1C(=O)C2(C)C (stereo not given) :: 6.77
9) O=C(O)c1ccc2ccc(/C=C/c3cc(O)c(O)c(O)c3)nc2c1O :: 5.92

* * *

- target.or.system: Human immunodeficiency virus type 1 integrase (Human immunodeficiency virus 1, UniProt Q7ZJM1)
- experiment.summary: Inhibition of HIV-1 integrase incubated for 30 mins by strand transfer activity
The label is Fulfilled for IC50 below 10 µM and Not fulfilled for IC50 equal to or exceeding 10 µM.

1. O=C(O)c1[nH]c2ccc([N+](=O)[O-])cc2c1COCc1ccc(C(F)(F)F)cc1 :: Not fulfilled
2. O=C(O)c1cc2ccccc2[nH]1 [INDOLE-2-CARBOXYLIC ACID] :: Not fulfilled
3. O=C(O)c1cc2ccc(Nc3ccc(F)cc3)cc2[nH]1 :: Fulfilled
4. CCOC(=O)c1cc2cc(NC(=O)c3cnccn3)ccc2[nH]1 :: Not fulfilled

* * *

- target.or.system: Human immunodeficiency virus type 1 integrase (Human immunodeficiency virus 1, UniProt Q7ZJM1)
- experiment.summary: Inhibition of HIV-1 integrase strand transfer activity
metric: IC50 (nM)

1) C[C@H]1CO[C@@H]2Cn3cc(C(=O)NCc4ccc(F)cc4F)c(=O)c(O)c3C(=O)N12 :: 1800
2) O=C(NCc1c(F)cc(F)cc1F)c1cn2c(c(O)c1=O)C(=O)N1[C@H]3CC[C@H](C3)O[C@@H]1C2 :: 2400

* * *

- experiment.summary: Inhibition of wild type HIV integrase strand transfer activity
- Parameters: species or system Human immunodeficiency virus
pIC50: −log10 of the molar value.
Reported pIC50 values for a set of compounds
metric: pIC50

1) CC(C)n1ccn2cc(C(=O)NCc3ccc(F)cc3F)c(=O)c(O)c2c1=O :: 5.42
2) CC(C)Cn1ccn2cc(C(=O)NCc3ccc(F)cc3F)c(=O)c(O)c2c1=O :: 5.52
3) CC(C)N1CCn2cc(C(=O)NCc3ccc(F)cc3F)c(=O)c(O)c2C1=O :: 5.77

* * *

- experiment.summary: Cytotoxicity against human TZM-bl cells assessed as reduction in cell viability incubated for 48 hrs by MTT assay
- Format: toxicity, cell-based
metric: CC50 at 48 h (µM)

1) COc1ccc(-c2ccc3c(-c4ccc(F)cc4F)cn(C)c3n2)cc1 :: 49.3
